As shown below, each of these compounds has a reported MIC value.
- Test system: Klebsiella pneumoniae
- ASSAY METHOD TEXT: Antibacterial activity against Klebsiella pneumoniae CICC 21611 after 16 to 18 hrs by broth microdilution method
- Format: functional
- CONDITION NOTES: time 16-18 hrs
REPORTED PROPERTY: MIC

> print(dat)
                       smiles.representation            test.system   obs.value
 1  CCCC[C@H](CN(O)C=O)C(=O)N1CCC[C@H]1c1nnc(-c2ccccc2OC)s1  Klebsiella pneumoniae  > 16 µg/mL
 2  O=C(O)c1cn(C2CC2)c2cc(N3CCNCC3)c(F)cc2c1=O  Klebsiella pneumoniae  0.03 µg/mL
 3  CCCC[C@H](CN(O)C=O)C(=O)N1CCC[C@H]1c1nnc(-c2c(F)cccc2[N+](=O)[O-])s1  Klebsiella pneumoniae  > 16 µg/mL
 4  CCCC[C@H](CN(O)C=O)C(=O)N1CCC[C@H]1c1nnc(-c2cccc3ccccc23)s1  Klebsiella pneumoniae  > 16 µg/mL
 5  CCCC[C@H](CN(O)C=O)C(=O)N1CCC[C@H]1c1nnc(-c2ccco2)s1  Klebsiella pneumoniae    32 µg/mL
 6  CCCC[C@H](CN(O)C=O)C(=O)N1CCC[C@H]1c1nnc(Cc2cccs2)s1  Klebsiella pneumoniae  > 16 µg/mL
 7  CCCC[C@H](CN(O)C=O)C(=O)N1CCC[C@H]1c1nnc(-c2sccc2C)s1  Klebsiella pneumoniae    16 µg/mL
 8  CCCC[C@H](CN(O)C=O)C(=O)N1CCC[C@H]1c1nnc(C)s1  Klebsiella pneumoniae  > 16 µg/mL
 9  CCCC[C@H](CN(O)C=O)C(=O)N1CCC[C@H]1c1nnc(-c2ccc(C(F)(F)F)cc2)s1  Klebsiella pneumoniae  > 16 µg/mL
10  CCCC[C@H](CN(O)C=O)C(=O)N1CCC[C@H]1c1nnc(-c2ccc(C)cc2)s1  Klebsiella pneumoniae  > 16 µg/mL
11  CCCC[C@H](CN(O)C=O)C(=O)N1CCC[C@H]1c1nnc(-c2cscn2)s1  Klebsiella pneumoniae    32 µg/mL
12  CCCC[C@H](CN(O)C=O)C(=O)N1CCC[C@H]1c1nnc(-c2ccc(Br)s2)s1  Klebsiella pneumoniae    32 µg/mL
13  CCCC[C@H](CN(O)C=O)C(=O)N1CCC[C@H]1c1nnc(C2CC2)s1  Klebsiella pneumoniae  > 16 µg/mL
14  CCCC[C@H](CN(O)C=O)C(=O)N1CCC[C@H]1c1nnc(-c2ccc(Br)cc2)s1  Klebsiella pneumoniae  > 16 µg/mL
15  CCCC[C@H](CN(O)C=O)C(=O)N1CCC[C@H]1c1nnc(-c2ccc(F)cc2[N+](=O)[O-])s1  Klebsiella pneumoniae  > 16 µg/mL
16  CCCC[C@H](CN(O)C=O)C(=O)N1CCC[C@H]1c1nnc(-c2ccc(Cl)s2)s1  Klebsiella pneumoniae    32 µg/mL
17  CCCC[C@H](CN(O)C=O)C(=O)N1CCC[C@H]1c1nnc(-c2ccc(OC)cc2)s1  Klebsiella pneumoniae  > 16 µg/mL
18  CCCC[C@H](CN(O)C=O)C(=O)N1CCC[C@H]1c1nnc(-c2ccc(-c3ccccc3)cc2)s1  Klebsiella pneumoniae  > 16 µg/mL
19  CCCC[C@H](CN(O)C=O)C(=O)N1CCC[C@H]1c1nnc(-c2ncccc2F)s1  Klebsiella pneumoniae  > 16 µg/mL
